System: OVCAR-4 ovarian
PROTOCOL_DETAILS: NCI tumour cell line growth inhibition, 48 h; in the data active means GI50 below about 0.43 µM; inactive means the rest
Please reply with one of these outcomes: yes (1) for active, no (0) for inactive

Ask: Record lookup: outcome of this test for Cc1ccc(S(=O)(=O)c2nc(-c3ccccc3)oc2S(C)(=O)=O)cc1 ?
Result: no (0)

Ask: Record lookup: outcome of this test for COc1cc(C(=O)N[C@H]2CCc3cc(OC)c(OC)c(OC)c3-c3ccc(SC)c(=O)cc32)cc(OC)c1OC ?
Result: yes (1)

Ask: Record lookup: outcome of this test for Cn1cc(-c2cc(-c3cn(C)c4ccc(Cl)cc34)[nH]n2)c2cc(Cl)ccc21 ?
Result: no (0)

Ask: Record lookup: outcome of this test for ClCc1cccc(Cn2cnc3c(Cl)nc(Cl)nc32)c1 ?
Result: no (0)

Ask: Record lookup: outcome of this test for COc1cccc(CNc2ncnc3c2ncn3C2OC(CO)C(O)C2O)c1O (stereo not given) ?
Result: yes (1)

---

Below are GI50 values recorded for NCI-H460 lung.

Examples with their reported GI50 follow.
{"MOLECULE": "CN(Cc1ccc(F)cc1)c1ccc(CO)c(Cl)c1", "GI50": "1410 nM"}
{"MOLECULE": "COc1cc(OC)c2sc(-c3ccc(-n4cncc4-c4ccc(OC)c(OC)c4)cc3)nc2c1", "GI50": "6060 nM"}
{"MOLECULE": "COc1cc(F)ccc1-c1cc(Nc2cc(CS(C)(=N)=O)ccn2)ncc1F (stereo not given)", "GI50": "59.3 nM"}

Let us examine a further case.
Ask: Fill in the recorded GI50 for this molecule, with NCI-H460 lung as test system: COc1cc([C@@H]2c3cc4c(cc3[C@H](OC(C)=O)[C@H]3COC(=O)[C@@H]23)OCO4)cc(OC)c1OC
Result: 322 nM

---

System: OVCAR-8 ovarian
PROTOCOL_DETAILS: NCI tumour cell line growth inhibition, 48 h
Below, each of the compounds is paired with its reported TGI value.

Examples with their reported TGI follow.
{"COMPOUND": "O=[N+]([O-])c1ccc(C2ON=C(c3ccccc3)N2C23CC4CC(CC(C4)C2)C3)cc1 (stereo not drawn)", "TGI": "> 10 µM"}
{"COMPOUND": "COc1ccc(C2=NC(=O)NC2c2ccc(OC)cc2)cc1 (stereo not drawn)", "TGI": "> 100 µM"}
{"COMPOUND": "CC12CC(=O)Nc3ccccc3N1C(c1ccccc1)=NO2 (stereo not drawn)", "TGI": "> 100 µM"}
{"COMPOUND": "COc1c2c(nc3ccccc13)-c1cc(C(CC(=O)OC(C)(C)C)C(=O)OC(C)C)c(CO)c(=O)n1C2 (stereo not drawn)", "TGI": "> 100 µM"}
{"COMPOUND": "CCC(C)C(N)C(=O)N/N=C\\c1c2c(nc3ccccc13)-c1cc3c(c(=O)n1C2)COC(=O)[C@]3(O)CC (stereo partly drawn)", "TGI": "> 20 µM"}

Ask: Fill in the recorded TGI for this compound, with OVCAR-8 ovarian as test system: C=C(CN1CCc2c([nH]c3ccccc23)C1)c1ccc(C(=O)Nc2ccccc2N)cc1
Result: 14.7 µM

Ask: Fill in the recorded TGI for this compound, with OVCAR-8 ovarian as test system: CCOC(=O)/C=C/c1c(C)[nH]c(=O)[nH]c1=O
Result: > 250 µM

Ask: Fill in the recorded TGI for this compound, with OVCAR-8 ovarian as test system: C=C1C(=O)O[C@H]2[C@H]1CC/C(COC(=O)N[C@H]1C[C@H](O[C@H]3C[C@](O)(C(=O)CO)Cc4c(O)c5c(c(O)c43)C(=O)c3c(OC)cccc3C5=O)O[C@@H](C)[C@H]1O)=C\CC[C@@]1(C)O[C@@H]21
Result: 18 µM

---

Test system: MCF7 breast
PROTOCOL_DETAILS: NCI tumour cell line growth inhibition, 48 h
PARAMETER: TGI

{"COMPOUND": "C=C1C(=O)OC2C1CCC(C)C1(O)C=CC(=O)C21C (stereo unspecified)", "TGI": "> 10 µM"}

Let us examine a further case.
Ask: Which measured TGI value corresponds to Cc1cn(-c2cccc(NC(=O)c3ccc(C)c(Nc4nccc(-c5cccnc5)n4)c3)c2)cn1 ?
Result: 4.74 µM

---

System: ACHN renal
PROTOCOL_DETAILS: NCI tumour cell line growth inhibition, 48 h
PARAMETER: TGI (µM)
Please state the figure in µM; there is no need to write the unit.

Examples with their reported TGI follow.
{"COMPOUND": "CCCCCCCCCc1ccc(OCCOCCOCCOCCOCCOCCOCCOCCOCCO)cc1", "PARAMETER": "TGI", "NUMERIC_RESULT": 5.7}
{"COMPOUND": "CC(C)(C)OC(=O)N1NC(c2ccccc2)CC1c1ccccc1 (stereo not given)", "PARAMETER": "TGI", "NUMERIC_RESULT": 68.6}
{"COMPOUND": "CC(C)(C)[Si](C)(C)OC1[C@@H](CNC(N)=O)O[C@@H](n2cnc3c(NC(=O)Nc4ccccc4)ncnc32)[C@H]1O[Si](C)(C)C(C)(C)C (stereo not given in full)", "PARAMETER": "TGI", "NUMERIC_RESULT": 8.62}

Let us examine a further case.
Ask: Which measured TGI value corresponds to Clc1ccccc1CN1COc2c(ccc3cccnc23)C1 ?
Result: 13.2

---

Below, each of the compounds is paired with its reported TGI value.
System: MDA-MB-231 breast
PROTOCOL_DETAILS: NCI tumour cell line growth inhibition, 48 h

Ask: Which measured TGI value corresponds to COc1ccc(-c2nc(-c3nc4cc(Cl)c(F)cc4[nH]3)c3ccccn23)cc1 ?
Result: > 100 µM

Ask: Which measured TGI value corresponds to NC(=O)CSc1c2cc(O)ccc2nc2ccc(O)cc12 ?
Result: > 10 µM

Ask: Which measured TGI value corresponds to O=C1CCC[C@H]2O[C@@H](COC(=O)c3ccccc3)C[C@H]2O1 ?
Result: > 100 µM

Ask: Which measured TGI value corresponds to O=C1C[C@@]23CCC4(CC2CCC[C@H]3O1)OCCO4 (stereo partly specified) ?
Result: > 100 µM

Ask: Which measured TGI value corresponds to Oc1ccc(/C=C/c2cccc(/C=C/c3ccc(O)c(O)c3)n2)cc1O ?
Result: 76.7 µM

Ask: Which measured TGI value corresponds to Nc1ccccc1C#CC(=O)c1cccc(C(F)(F)F)c1 ?
Result: 4.97 µM

---

Below, each of the compounds is paired with its reported TGI value.
Test system: NCI-H23 lung
PROTOCOL_DETAILS: NCI tumour cell line growth inhibition, 48 h

Ask: Which measured TGI value corresponds to O=C(NN1C(=O)C(Cl)C1c1cccc([N+](=O)[O-])c1)c1ccccc1O (stereo unspecified) ?
Result: > 100 µM

Ask: Which measured TGI value corresponds to FC(F)(F)c1ccc(-c2nn3ncccc3c2-c2ccnc(Nc3ccc4c(c3)OCCO4)n2)cc1 ?
Result: > 25 µM

Ask: Which measured TGI value corresponds to C=C(CN1CCc2c([nH]c3ccccc23)C1)c1ccc(C(=O)Nc2ccccc2N)cc1 ?
Result: 19.9 µM

Ask: Which measured TGI value corresponds to COc1ccc2oc(S(=O)(=O)N3CC(CCl)c4ccc(N)cc43)cc2c1 (stereo unspecified) ?
Result: > 100 µM

Ask: Which measured TGI value corresponds to CCOc1cccc2c1N[S@@](=O)S2 ?
Result: > 100 µM

Ask: Which measured TGI value corresponds to COc1cc(OCc2cccc(-c3ccccc3)c2C)cc(OC)c1CN1CCCCC1C(=O)NCCOCCOCCN (stereo unspecified) ?
Result: 19.2 µM

Ask: Which measured TGI value corresponds to CC(Oc1ccc(Oc2cnc3ccc(Cl)cc3n2)cc1)C(=O)O (stereo unspecified) ?
Result: > 100 µM

Ask: Which measured TGI value corresponds to CCCC(=O)N[C@H]1CCc2cc(OC)c(OC)c(OC)c2-c2ccc(SC)c(=O)cc21 ?
Result: 2.18 µM

Ask: Which measured TGI value corresponds to COc1ccc(/C=C(\NC(=O)c2ccccc2)c2nc3ccccc3[nH]2)cc1OC ?
Result: > 100 µM

Ask: Which measured TGI value corresponds to CC12CCCCC1=C(F)C(F)(F)S2 (stereo unspecified) ?
Result: > 100 µM

Ask: Which measured TGI value corresponds to COC/N=C(\NC#N)NCOC ?
Result: > 100 µM

---

Below, each of the compounds is paired with its reported TGI value.
System: SF-295 CNS
PROTOCOL_DETAILS: NCI tumour cell line growth inhibition, 48 h
Please state the figure in µM; there is no need to write the unit.

{"COMPOUND": "C=C1C(=O)C23[C@H](O)C1CC[C@H]2[C@]12COC3(O)[C@@H](O)[C@@H]1C(C)(C)CC[C@@H]2O", "RESULT_UNITS": "µM", "TGI": 32.2}
{"COMPOUND": "Cn1cc(-c2cc(-c3cn(C)c4ccc(Cl)cc34)[nH]n2)c2cc(Cl)ccc21", "RESULT_UNITS": "µM", "TGI": 8.65}
{"COMPOUND": "Cc1ccc(S(=O)C[C@](NC(=O)OCc2ccccc2)(Sc2ccccc2)C(F)F)cc1 (some centres not stated)", "RESULT_UNITS": "µM", "TGI": 34.4}

Ask: Which measured TGI value corresponds to FC(F)(F)c1ccc2c(c1)nc1n2C(c2c(Cl)cccc2Cl)SC1 (configuration not stated) ?
Result: 33.6

Ask: Which measured TGI value corresponds to Nc1nc(N)c2cc(Sc3ccc4ccccc4c3)ccc2n1 ?
Result: 4.91

Ask: Which measured TGI value corresponds to CCc1ccc2[nH]c(O)c(C3=Nc4ccccc4C3=O)c2c1 ?
Result: 61.2

Ask: Which measured TGI value corresponds to Cc1cc(CCl)c(C)cc1CCl ?
Result: 4.61

Ask: Which measured TGI value corresponds to COc1ccc(/C=C2\CCC(CCN(C)C)(C3=CCCC3)C2=O)cc1 (configuration not stated) ?
Result: 33.4

Ask: Which measured TGI value corresponds to CCOC(=O)c1ccc(NC(=O)NC2=NCCS2)cc1 ?
Result: 6.13

Ask: Which measured TGI value corresponds to CCN1[C@@H](C(=O)NC23CCC(C(=O)O)(CC2)CC3)[C@H](c2cccc(Cl)c2F)[C@]2(C(=O)Nc3cc(Cl)ccc32)C12CCCCC2 ?
Result: 7.29

Ask: Which measured TGI value corresponds to Clc1ccccc1CN1COc2c(ccc3cccnc23)C1 ?
Result: 10.6

Ask: Which measured TGI value corresponds to Oc1ccc(/C=C/c2cccc(/C=C/c3ccc(O)c(O)c3)n2)cc1O ?
Result: 65.1
